# assay_target: M1 muscarinic receptor (Homo sapiens)
# Construct: expressed in transfected cells; host or cells: CHO
# assay_remarks: Functional mobilization of intracellular calcium (FLIPR) in CHO cells expressing M1
# Assay type: cell-based
# measurement_parameters: CHO; 100% efficacy is the maximum response obtained with the Carbachol control
measured_attribute: Emax

Observe how each entry below is paired with its result.
- molecule: "CN(C)C(=O)N1CCCC2(CCN(CC3CC4C=CC3C4)CC2)c2ccccc21 (stereo not drawn)"
  Emax: "< 25%"
- molecule: "CN1C(=O)CCC2(CCN(C3CC4CCC(C4)C3)CC2)c2ccccc21 (stereo not drawn)"
  Emax: "25 to 100%"
- molecule: "CCOC(=O)N1C2CCC1CC(N1CCC3(CCC(=O)N(C)c4ccccc43)CC1)C2 (stereo not drawn)"
  Emax: "25 to 100%"
- molecule: "CN1C(=O)CCC2(CCN(C3CCCCCC3)CC2)c2ccccc21"
  Emax: "25 to 100%"
- molecule: "CCOC(=O)N1C2CCC1CC(N1CCC3(CCCN(C(C)=O)c4ccccc43)CC1)C2 (stereo not drawn)"
  Emax: "25 to 100%"
- molecule: "CCOC(=O)N1C2CCC1CC(N1CCC3(CCC(=O)Nc4ccccc43)CC1)C2 (stereo not drawn)"
  Emax: "25 to 100%"

Please fill in: Emax reported for CCOC(=O)N1CCC(N2CCC3(CCCN(C(N)=O)c4ccccc43)CC2)CC1 = 25 to 100%

Please fill in: Emax reported for CC(=O)N1CCCC2(CCN(CCC(C)(C)C)CC2)c2ccccc21 = < 25%

Please fill in: Emax reported for CC(=O)N1CCCC2(CCN(CCC(C)C)CC2)c2ccccc21 = < 25%

Please fill in: Emax reported for CN(C)C(=O)N1CCCC2(CCN(C3CC4CCC(C4)C3)CC2)c2ccccc21 (stereo not drawn) = < 25%

Please fill in: Emax reported for NC(=O)N1CCCC2(CCN(C3CCCCCC3)CC2)c2ccccc21 = < 25%

Please fill in: Emax reported for CCOC(=O)N1C2CCC1CC(N1CCC3(CCCN(C(=O)N(C)C)c4ccccc43)CC1)C2 (stereo not drawn) = < 25%

###

# assay_target: M1 muscarinic receptor (Homo sapiens)
# Sequence (P11229 1-460): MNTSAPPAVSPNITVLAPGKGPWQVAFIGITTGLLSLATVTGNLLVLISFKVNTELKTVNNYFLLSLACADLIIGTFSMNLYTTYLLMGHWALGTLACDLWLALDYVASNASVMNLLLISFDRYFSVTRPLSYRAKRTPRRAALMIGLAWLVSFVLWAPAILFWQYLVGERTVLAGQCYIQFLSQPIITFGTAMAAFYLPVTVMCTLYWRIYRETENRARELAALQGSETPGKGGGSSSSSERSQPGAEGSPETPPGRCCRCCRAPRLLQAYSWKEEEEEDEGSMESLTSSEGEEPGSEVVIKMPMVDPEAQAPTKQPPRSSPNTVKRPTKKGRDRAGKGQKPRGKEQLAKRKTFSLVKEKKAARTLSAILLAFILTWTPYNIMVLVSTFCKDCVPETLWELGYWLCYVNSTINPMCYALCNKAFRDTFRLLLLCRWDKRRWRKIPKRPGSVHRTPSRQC
# assay_remarks: Functional mobilization of intracellular calcium (FLIPR) in CHO cells expressing M1
# measurement_parameters: CHO cells expressing M1, calcium mobilization
measured_attribute: EC50

Observe how each entry below is paired with its result.
- compound: "CCOC(=O)N1CCC(N2CCC3(CCCN(C(=O)N(C)C)c4ccccc43)CC2)CC1"
  EC50: "2 to 10 µM"
- compound: "O=C1CCC2(CCN(C3CCCCCC3)CC2)c2ccccc2N1"
  EC50: "< 2 µM"
- compound: "CN(C)C(=O)N1CCCC2(CCN(CC3CC4C=CC3C4)CC2)c2ccccc21 (stereo not drawn)"
  EC50: "> 10 µM"
- compound: "NC(=O)N1CCCC2(CCN(CC3CCCCC3)CC2)c2ccccc21"
  EC50: "> 10 µM"
- compound: "CN(C)C(=O)N1CCCC2(CCN(C3CC4CCC(C4)C3)CC2)c2ccccc21 (stereo not drawn)"
  EC50: "> 10 µM"
- compound: "CC(=O)N1CCCC2(CCN(CCC(C)(C)C)CC2)c2ccccc21"
  EC50: "2 to 10 µM"

Please fill in: EC50 reported for CC(C)(C)CCN1CCC2(CCCN(C(N)=O)c3ccccc32)CC1 = 2 to 10 µM

Please fill in: EC50 reported for O=C1CCC2(CCN(C3CC4CCC(C4)C3)CC2)c2ccccc2N1 (stereo not drawn) = < 2 µM

Please fill in: EC50 reported for CC(=O)N1CCCC2(CCN(CCC(C)C)CC2)c2ccccc21 = > 10 µM
